Reference source for all entries: a melting point compilation (Tetko et al.; mined from patent text by program, amines drawn as free bases though some values may be those of a salt)

Attribute: melting point

Example results:
ClC(Cl)(Cl)c1nc(-c2ccc(OCCCn3ccnc3)cc2)no1 :: 102 to 103 °C
COc1cccc(C2(Cl)C(C)(C)C2(C)C)c1OC :: 123 to 125 °C
Oc1cc(/C=C/c2ccccn2)n(-c2ccccc2)n1 :: 167 to 168 °C
CCC(C)C(NC(=O)N1CCCCCC1)C(=O)NC(Cc1ccc(OCc2ccccc2)cc1)C(=O)OC(C)(C)C (configuration not stated) :: 53 to 57 °C
O=C(CCCN1CCC2(CC(O)c3cc(Cl)cc(Cl)c32)C1)c1ccc(F)cc1 (configuration not stated) :: 149 to 152 °C

# evaluate next
[ask] Which melting point reading was recorded for the compound `O=c1cc(OCc2ccccc2)cc(C=Cc2ccc3c(c2)OCO3)o1` ?
[reply] 150 to 152 °C

###

Attribute: melting point

Example results:
CC(C)CCC(O)C(C(=O)C(Cc1c[nH]cn1)N(C)C(=O)C(Cc1ccccc1)OC(=O)N(C)CCN(C)C(=O)C(C)C)C(N)C1CCCCC1 (stereo not given) :: 68 to 72 °C
COc1ccccc1N1CCN(CCCCN(C(N)=O)C(C)(C)C)CC1 :: 167 to 169 °C
CCCCCCCCc1c(N)nc(-n2cccn2)nc1CC :: 62 to 63 °C

[ask] Which melting point reading was recorded for the molecule CNC(C)CN1CCc2c(c(=O)oc3cc(OC)ccc23)C1 (stereo not given) ?
[reply] 109 to 111 °C

[ask] Which melting point reading was recorded for the molecule `NNC(=O)OCC1c2ccccc2-c2ccccc21` ?
[reply] 150 to 153 °C

###

measured attribute: melting point

CCOC(=O)c1cnoc1-c1ccc(-c2ccccc2)cc1 :: 73 to 75 °C
CN1CCCC(O)(c2nccnc2Cl)C1 (stereo not given) :: 111 to 112 °C
CCCCCCOc1ccc(NC(=O)NCCC(C)(C)C)cc1 :: 103 to 104 °C
c1cc(NC2CC2)ccn1 :: 111 to 112 °C
CCCCCCCCCCCCCCCCCC(=O)OC(CCc1cc(C(C)(C)C)c(O)c(C(C)(C)C)c1)CCc1cc(C(C)(C)C)c(O)c(C(C)(C)C)c1 :: 52 to 54 °C
COCOCc1oc2c(OC)cccc2c1CCSC(c1ccccc1)c1ccccc1 :: 110 °C
CCCCc1nc2c(N)nc3ccccc3c2n1CCCC(=O)c1ccccc1 :: 178 to 180 °C
CCc1cc(C)cc(CC)c1C1C(=O)C2=CC(COCOC)CC2C1=O (stereo not given) :: 155 to 156 °C
CCCCCCCCNc1ccc(-c2cc3ccccc3o2)cc1 :: 87 to 90 °C

# evaluate next
[ask] Which melting point reading was recorded for the molecule `Cc1cc(Cl)cc(C(=NCCC(=O)O)c2ccc(Cl)cc2)c1O` ?
[reply] 138 °C

###

Attribute: melting point

Example results:
COc1ccc2c(c1)CN(C(=O)CCCCCN1CCN(c3cccc(C(F)(F)F)c3)CC1)C2 :: 92 °C
CCCCCCCCCCCCCCCCCC(=O)Nc1cccc(C(=O)N(CC(=O)OCC)CC(=O)OCC)c1 :: 76 to 79 °C

[ask] Which melting point reading was recorded for the compound `COc1ccc(C(O)(c2ccc(OC)cc2)[C@@H](N)C2CCCCC2)cc1` ?
[reply] 146 to 147 °C

[ask] Which melting point reading was recorded for the compound `O=C(O)CN(CC(=O)O)Cc1cc(S(=O)(=O)c2ccc(OCc3ccccc3)cc2)cc(CN(CC(=O)O)CC(=O)O)c1O` ?
[reply] 138 to 143 °C

[ask] Which melting point reading was recorded for the compound `O=C(Cl)c1cc2ccccc2oc1=O` ?
[reply] 138 to 141 °C

[ask] Which melting point reading was recorded for the compound `CN(C)c1ccc(/C=C/c2cc(/C=C/c3ccc4cc[nH]c4c3)[nH]n2)cc1` ?
[reply] 224 to 227 °C

[ask] Which melting point reading was recorded for the compound `COc1ccc(-c2nn(CC3CC3)c(=O)cc2-c2ccc(OC)c(F)c2)cc1` ?
[reply] 135 to 136 °C
